Test system: M14
Measurement Description: NCI tumour cell line growth inhibition, 48 h
The source made the active and inactive calls. Rule as the data show it: active = GI50 up to about 1.1 µM and inactive = higher.
Each item that follows carries a reported GI50.

The cases that follow already have their GI50 on record.
CC1N(O)C(c2ccccc2)C(c2ccccc2)=[N+]1[O-] (centres undefined)
> 100 µM (inactive)
O=C1[C@@H]2C(c3ccccc3Br)=NO[C@@H]2C(=O)N1c1ccc(Cc2ccc(N3C(=O)[C@H]4C(c5ccccc5Br)=NO[C@H]4C3=O)cc2)cc1
> 100 µM (inactive)
Cc1ccc(S(=O)(=O)N/N=C2\CCCCCCCCCCC2CN(C)C)cc1 (centres undefined)
17.1 µM (inactive)

Give M14 GI50 for `CCO[C@@]1(COCc2ccccc2)OC(=O)C[C@@H]1N1C(=O)OC[C@@H]1c1ccccc1`
> 100 µM (inactive)
